Molecular target: T1, Cdc4^WD40 (isolated WD40 domain of the yeast F-box protein Cdc4, residues 367-744), wild type (yeast, UniProt P07834 367-744)
T1 construct: Cdc4, yeast F-box protein, WD40 domain, residues 367-744; For the NMR experiments the protein was U-[15N,2H], Ile-delta1-[13CH3], Met-epsilon-[13CH3] labelled (IM-labelled); also called wt Cdc4^WD40; Cdc4 WD40 domain; source: E. coli BL21(DE3) codonPlus, purified (Ni-NTA, Ulp protease, Ni-NTA, Superdex 200)
T1 sequence (looked up): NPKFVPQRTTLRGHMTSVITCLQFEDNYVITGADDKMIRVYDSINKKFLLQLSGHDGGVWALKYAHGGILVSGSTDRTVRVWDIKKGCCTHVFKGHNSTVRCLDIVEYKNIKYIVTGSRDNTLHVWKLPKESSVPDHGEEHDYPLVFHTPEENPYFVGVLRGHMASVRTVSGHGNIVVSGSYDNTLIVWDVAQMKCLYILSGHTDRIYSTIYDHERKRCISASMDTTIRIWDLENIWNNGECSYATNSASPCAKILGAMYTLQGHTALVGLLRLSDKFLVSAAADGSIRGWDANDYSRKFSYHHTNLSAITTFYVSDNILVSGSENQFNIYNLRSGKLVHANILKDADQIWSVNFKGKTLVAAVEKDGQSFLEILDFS
Assay: other fluorescence titration; intrinsic Trp fluorescence (excitation 298 nm, emission 366 nm); 0.5 μM Cdc4, ligand titrated; 50 mM Tris, 150 mM NaCl, 5 mM DTT, pH 7.5, 20 °C; 1:1 stoichiometry assumed
Conditions: both partners purified
Square brackets hold non-standard residues; d marks the D form. Ends that are not written are not given here. pS = N[C@@H](COP(=O)(O)O)C(=O)O
# Lookup of reported pKd keyed by entry
Units for pKd: none; it is -log10 of a concentration expressed in mol/L.

Below, 2 binders whose answers are already recorded.
GMTSPFNGLTSPQR[pS]PFPKS [Sic1^20pS80 phosphopeptide] :: 5.04
GMT[pS]PFNGLTSPQR[pS]PFPKS [Sic1^20pS69/pS80 phosphopeptide] :: 5.15

Let's switch to this binder now.
Tell me pKd reported for GMT[pS]PFNGLTSPQRSPFPKS [Sic1^20pS69 phosphopeptide] 4.99
